- Tested on: BEAS-2B human bronchial epithelial cell line
- EXPERIMENT NOTES: Gene expression change by high-throughput RNA sequencing (NextSeq 500) in ketone-exposed BEAS-2B cells
- Format: cell-based
- TEST CONDITIONS: IC5 conc.: Acetone 5.38, 2-Butanone 22.27, 2-Pentanone 5.24, 2-Hexanone 14.82, 2-Heptanone 5.05 mM
QUANTITY KIND: Fold change ADRA2A (NM_000681)
Quick one: just the number, no unit, thanks!

Item CCCCCC(C)=O has what recorded Fold change ADRA2A (NM_000681)?
0.321

Item CC(C)=O has what recorded Fold change ADRA2A (NM_000681)?
0.179

Item CCCC(C)=O has what recorded Fold change ADRA2A (NM_000681)?
0.179

Item CCC(C)=O has what recorded Fold change ADRA2A (NM_000681)?
0.185

Item CCCCC(C)=O has what recorded Fold change ADRA2A (NM_000681)?
0.410

* * *

- System: BEAS-2B human bronchial epithelial cell line
- EXPERIMENT NOTES: Gene expression change by high-throughput RNA sequencing (NextSeq 500) in ketone-exposed BEAS-2B cells
- Format: cell-based
- TEST CONDITIONS: IC5 conc.: Acetone 5.38, 2-Butanone 22.27, 2-Pentanone 5.24, 2-Hexanone 14.82, 2-Heptanone 5.05 mM
- Method: RNA was extracted from cell samples of ketone-exposed and non-ketone-exposed groups using a TRIzol reagent (Life Technologies, USA) in accordance with the manufacturer's directions to isolate total RNA and the total RNA was purified using a RNeasy mini kit (Qiagen, USA). The concentration of each total RNA sample was determined by a ND-2000 spectrophotometer (Thermo Inc., DE, USA) as a spectrophotometer and Agilent 2100 Bioanalyzer (Agilent Technologies, USA). […]
QUANTITY KIND: Fold change USP12-AB1 (NR_046647)
Quick one: just the number, no unit, thanks!

Entry CCCC(C)=O , system BEAS-2B human bronchial epithelial cell line: what Fold change USP12-AB1 (NR_046647) was measured?
7.329

Entry CCCCCC(C)=O , system BEAS-2B human bronchial epithelial cell line: what Fold change USP12-AB1 (NR_046647) was measured?
11.319

Entry CCC(C)=O , system BEAS-2B human bronchial epithelial cell line: what Fold change USP12-AB1 (NR_046647) was measured?
3.499

Entry CCCCC(C)=O , system BEAS-2B human bronchial epithelial cell line: what Fold change USP12-AB1 (NR_046647) was measured?
3.862

Entry CC(C)=O , system BEAS-2B human bronchial epithelial cell line: what Fold change USP12-AB1 (NR_046647) was measured?
3.620

* * *

- Tested on: BEAS-2B human bronchial epithelial cell line
- EXPERIMENT NOTES: Gene expression change by high-throughput RNA sequencing (NextSeq 500) in ketone-exposed BEAS-2B cells
- Assay type: cell-based
- TEST CONDITIONS: IC5 conc.: Acetone 5.38, 2-Butanone 22.27, 2-Pentanone 5.24, 2-Hexanone 14.82, 2-Heptanone 5.05 mM
- Method: RNA was extracted from cell samples of ketone-exposed and non-ketone-exposed groups using a TRIzol reagent (Life Technologies, USA) in accordance with the manufacturer's directions to isolate total RNA and the total RNA was purified using a RNeasy mini kit (Qiagen, USA). The concentration of each total RNA sample was determined by a ND-2000 spectrophotometer (Thermo Inc., DE, USA) as a spectrophotometer and Agilent 2100 Bioanalyzer (Agilent Technologies, USA). […]
Please go through the items and note down their Fold change ZFP69B (NM_023070).
Quick one: just the number, no unit, thanks!

Item CC(C)=O has what recorded Fold change ZFP69B (NM_023070)?
2.708

Item CCCCCC(C)=O has what recorded Fold change ZFP69B (NM_023070)?
3.346

Item CCC(C)=O has what recorded Fold change ZFP69B (NM_023070)?
4.676

Item CCCC(C)=O has what recorded Fold change ZFP69B (NM_023070)?
2.472

Item CCCCC(C)=O has what recorded Fold change ZFP69B (NM_023070)?
4.095

* * *

- System: BEAS-2B human bronchial epithelial cell line
- EXPERIMENT NOTES: Gene expression change by high-throughput RNA sequencing (NextSeq 500) in ketone-exposed BEAS-2B cells
- Assay type: cell-based
- TEST CONDITIONS: IC20 conc.: Acetone 71.90, 2-Butanone 106.21, 2-Pentanone 39.38, 2-Hexanone 52.51, 2-Heptanone 20.22 mM
QUANTITY KIND: Fold change CDHR1 (NM_001171971)
Quick one: just the number, no unit, thanks!

Item CC(C)=O has what recorded Fold change CDHR1 (NM_001171971)?
0.429

Item CCCC(C)=O has what recorded Fold change CDHR1 (NM_001171971)?
0.223

Item CCCCC(C)=O has what recorded Fold change CDHR1 (NM_001171971)?
0.432

Item CCCCCC(C)=O has what recorded Fold change CDHR1 (NM_001171971)?
0.216

Item CCC(C)=O has what recorded Fold change CDHR1 (NM_001171971)?
0.222

* * *

- Tested on: BEAS-2B human bronchial epithelial cell line
- EXPERIMENT NOTES: Gene expression change by high-throughput RNA sequencing (NextSeq 500) in ketone-exposed BEAS-2B cells
- Assay type: cell-based
- TEST CONDITIONS: IC20 conc.: Acetone 71.90, 2-Butanone 106.21, 2-Pentanone 39.38, 2-Hexanone 52.51, 2-Heptanone 20.22 mM
QUANTITY KIND: Fold change C12orf79 (NR_046159)
Quick one: just the number, no unit, thanks!

Item CCC(C)=O [2-Butanone, 2-butanone] has what recorded Fold change C12orf79 (NR_046159)?
0.216

Item CCCC(C)=O [2-Pentanone, 2-pentanone] has what recorded Fold change C12orf79 (NR_046159)?
0.216

Item CC(C)=O [Acetone, acetone] has what recorded Fold change C12orf79 (NR_046159)?
0.213

Item CCCCC(C)=O [2-Hexanone, 2-hexanone] has what recorded Fold change C12orf79 (NR_046159)?
0.213

Item CCCCCC(C)=O [2-Heptanone, 2-heptanone] has what recorded Fold change C12orf79 (NR_046159)?
0.213

* * *

- System: BEAS-2B human bronchial epithelial cell line
- EXPERIMENT NOTES: Gene expression change by high-throughput RNA sequencing (NextSeq 500) in ketone-exposed BEAS-2B cells
- Format: cell-based
- TEST CONDITIONS: IC20 conc.: Acetone 71.90, 2-Butanone 106.21, 2-Pentanone 39.38, 2-Hexanone 52.51, 2-Heptanone 20.22 mM
# note: exactly 3 is not below, so it is f; use t for Fold change CD37 (NM_001040031) strictly under it

Please check: Fold change CD37 (NM_001040031) for CCCCC(C)=O [2-Hexanone, 2-hexanone] , strictly under 3 or not?
t

Please check: Fold change CD37 (NM_001040031) for CCC(C)=O [2-Butanone, 2-butanone] , strictly under 3 or not?
t

Please check: Fold change CD37 (NM_001040031) for CCCC(C)=O [2-Pentanone, 2-pentanone] , strictly under 3 or not?
f

Please check: Fold change CD37 (NM_001040031) for CCCCCC(C)=O [2-Heptanone, 2-heptanone] , strictly under 3 or not?
f

Please check: Fold change CD37 (NM_001040031) for CC(C)=O [Acetone, acetone] , strictly under 3 or not?
t

* * *

Please go through the items and note down their Fold change CSF3R (NM_172313).
- Tested on: BEAS-2B human bronchial epithelial cell line
- EXPERIMENT NOTES: Gene expression change by high-throughput RNA sequencing (NextSeq 500) in ketone-exposed BEAS-2B cells
- Format: cell-based
- TEST CONDITIONS: IC5 conc.: Acetone 5.38, 2-Butanone 22.27, 2-Pentanone 5.24, 2-Hexanone 14.82, 2-Heptanone 5.05 mM
Quick one: just the number, no unit, thanks!

Item CCCC(C)=O has what recorded Fold change CSF3R (NM_172313)?
0.354

Item CCC(C)=O has what recorded Fold change CSF3R (NM_172313)?
0.356

Item CCCCC(C)=O has what recorded Fold change CSF3R (NM_172313)?
0.358

Item CC(C)=O has what recorded Fold change CSF3R (NM_172313)?
0.354

Item CCCCCC(C)=O has what recorded Fold change CSF3R (NM_172313)?
0.354

* * *

- Test system: BEAS-2B human bronchial epithelial cell line
- EXPERIMENT NOTES: Gene expression change by high-throughput RNA sequencing (NextSeq 500) in ketone-exposed BEAS-2B cells
- Format: cell-based
- TEST CONDITIONS: IC20 conc.: Acetone 71.90, 2-Butanone 106.21, 2-Pentanone 39.38, 2-Hexanone 52.51, 2-Heptanone 20.22 mM
QUANTITY KIND: Fold change SLC13A4 (NM_012450)
Quick one: just the number, no unit, thanks!

Item CCC(C)=O has what recorded Fold change SLC13A4 (NM_012450)?
8.571

Item CCCC(C)=O has what recorded Fold change SLC13A4 (NM_012450)?
2.153

Item CCCCCC(C)=O has what recorded Fold change SLC13A4 (NM_012450)?
11.825

Item CCCCC(C)=O has what recorded Fold change SLC13A4 (NM_012450)?
7.012

Item CC(C)=O has what recorded Fold change SLC13A4 (NM_012450)?
12.386
